test system: NCI-H596 (Other Solid Carcinomas); assay: Bliss excess, mean over the matrix (fraction); higher = more synergy;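 also: after 72 h of two-drug dosing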
// reported Bliss excess per item

compound="CN(C)CCCOc1ccc(-c2ccc3ncc4c(c3c2)n(C2CCOCC2)c(=O)n4C)cn1 [AZD0156] + C[C@@H]1COCCN1C2=NC(=NC(=C2)C3(CC3)[S@](=N)(=O)C)C4=C5C=CNC5=NC=C4 [AZD6738] (first compound max 1 µM, 7x7, partner max 10 µM)" assay_readout="Bliss excess" result=-0.009

Moving on to another compound below.
Q: Report Bliss excess for CN(CCO)CC[C@H](CSc1ccccc1)Nc1ccc(S(=O)(=O)NC(=O)c2ccc(N3CCC([C@@H](O)c4ccccc4-c4ccc(Cl)cc4)CC3)cc2)cc1S(=O)(=O)C(F)(F)F [AZD4320] + Cc1cc2ncnn2cc1Nc1ncc2c(n1)n(C1CCOCC1)c(=O)n2C [AZD7648] (first compound max 1 µM, 7x7, partner max 10 µM) please.
A: -0.0422

* * *

tested on: P30-OHK (B-Lymphoblastic Leukemia); assay: Bliss excess, mean over the matrix (fraction); higher = more synergy
// reported Bliss excess per item

compound="CC(=O)Nc1cccc(-n2c(=O)n(C3CC3)c(=O)c3c(Nc4ccc(I)cc4F)n(C)c(=O)c(C)c32)c1 [Trametinib] + Cc1nc(-c2cn3c(n2)-c2ccc(-c4cnn(C(C)(C)C(N)=O)c4)cc2OCC3)n(C(C)C)n1 [Taselisib] (first compound max 1 µM, 7x7, partner max 10 µM)" result=0.151

Q: Report Bliss excess for CN(CCO)CC[C@H](CSc1ccccc1)Nc1ccc(S(=O)(=O)NC(=O)c2ccc(N3CCC([C@@H](O)c4ccccc4-c4ccc(Cl)cc4)CC3)cc2)cc1S(=O)(=O)C(F)(F)F [AZD4320] + C=CCn1c(=O)c2cnc(Nc3ccc(N4CCN(C)CC4)cc3)nc2n1-c1cccc(C(C)(C)O)n1 [AZD1775] (first compound max 1 µM, partner max 1 µM) please.
A: 0.141

* * *

tested on: ES6 (Ewing's Sarcoma); assay: Bliss excess, mean over the matrix (fraction); higher = more synergy
assay_readout: Bliss excess
Just the number.

molecule="Cc1nc(-c2cn3c(n2)-c2ccc(-c4cnn(C(C)(C)C(N)=O)c4)cc2OCC3)n(C(C)C)n1 [Taselisib] + O=C(Nc1ccc2[nH]nc(-c3ccncc3)c2c1)[C@@H]1CCN(CC(=O)N2CCN(c3ccc(-c4ncccn4)cc3)CC2)C1 [SCH772984] (first compound max 10 µM, 7x7, partner max 5 µM)" recorded_number=-0.0318

Q: Report Bliss excess for C[C@@H]1COCCN1c1cc(C2([S@](C)(=N)=O)CC2)nc(-c2ccnc3[nH]ccc23)n1 [AZD6738] + O=C(c1cc(Cc2n[nH]c(=O)c3ccccc23)ccc1F)N1CCN(C(=O)C2CC2)CC1 [Olaparib] (first compound max 10 µM, 7x7, partner max 10 µM) please.
A: 0.0128

Q: Report Bliss excess for CC(=O)c1c(C)c2cnc(Nc3ccc(N4CCNCC4)cn3)nc2n(C2CCCC2)c1=O [Palbociclib] + CC1(C)CCC(CN2CCN(c3ccc(C(=O)NS(=O)(=O)c4ccc(NCC5CCOCC5)c([N+](=O)[O-])c4)c(Oc4cnc5[nH]ccc5c4)c3)CC2)=C(c2ccc(Cl)cc2)C1 [Venetoclax] (first compound max 10 µM, 7x7, partner max 1 µM) please.
A: -0.0387
